Listed here are compounds together with their documented IC50.
target: Syk (356-635 amino acids) catalytic domain (Homo sapiens (Human), UniProt P43405); assay: Inhibition of enzymatic Syk kinase activity (radiometric); format: biochemical; details: read-out: IC50 Syk
Where a name gives a salt, the structure may show the parent alone.

Reported IC50, compound O=C(CC1CCN(c2ccc(Nc3nc(N4CCCCCC4)nc4cn[nH]c(=O)c34)cc2)CC1)NCCO [Example 109] : ____
< 10 nM

Then CCN1CCN(Cc2ccc(Nc3nc(-c4ccccc4)nc4cn[nH]c(=O)c34)cc2)CC1 [Example 6] ?
< 50 nM

Quick one: CCOc1nc(Nc2ccc(CN3CCNCC3)cc2)c2c(=O)[nH]ncc2n1 [Example 50, hydrochloride]
< 10 nM

Proceed to CCN1CCN(CCc2ccc(Nc3nc(N4CCCCCC4)nc4cn[nH]c(=O)c34)cc2)CC1 [Example 209]
< 10 nM

For CC(C)(C(=O)O)C1CCN(c2ccc(Nc3nc(N4CCCCCC4)nc4cn[nH]c(=O)c34)cc2)CC1 [Example 142] then?
< 50 nM

Note, next up: CCN1CCN(CCn2cc(Nc3nc(-c4ccccc4)nc4cn[nH]c(=O)c34)cn2)CC1 [Example 65]
> 100 nM

What would you report for O=c1[nH]ncc2nc(N3CCCCCC3)nc(Nc3ccc(N4CCCC(O)C4)cc3)c12 (stereo not drawn) [Example 281] ?
< 50 nM

Request: N#CCC1CCN(c2nc(Nc3ccc(OC(F)(F)F)cc3)c3c(=O)[nH]ncc3n2)CC1 [Example 301]
> 100 nM

---

Below, each entry is listed with its recorded IC50.
molecular target: JAK2 (Homo sapiens (Human)); test: Inhibition of enzymatic JAK2 kinase activity (TR-FRET); type: biochemical; details: read-out: IC50 JAK
Sequence (O60674 808-1132): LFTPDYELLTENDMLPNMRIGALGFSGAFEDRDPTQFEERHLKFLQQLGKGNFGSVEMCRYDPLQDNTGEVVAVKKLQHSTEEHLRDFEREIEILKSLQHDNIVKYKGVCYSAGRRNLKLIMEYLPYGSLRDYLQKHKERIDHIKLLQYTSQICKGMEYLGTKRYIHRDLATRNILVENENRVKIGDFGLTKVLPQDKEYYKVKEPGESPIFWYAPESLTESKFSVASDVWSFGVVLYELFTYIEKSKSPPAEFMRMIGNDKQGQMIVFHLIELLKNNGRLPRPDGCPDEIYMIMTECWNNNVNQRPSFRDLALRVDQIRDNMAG
Where a name gives a salt, the structure may show the parent alone.

Worked examples follow.
- molecule: "O=C(O)[C@H]1CO[C@H](COc2ccc(Nc3nc(N4CCCCCC4)nc4cn[nH]c(=O)c34)cc2)CO1 [Example 124]"
  IC50: "< 10 nM"
- molecule: "N=Cc1nc(N2CCCCCC2)nc(Nc2ccc(N3CCCC(CC(=O)O)C3)cc2)c1C(N)=O (stereo not drawn) [Example 232]"
  IC50: "< 10 nM"
- molecule: "O=C(O)CC1CCN(c2ccc(Nc3nc(N4CCCCCCC4)nc4cn[nH]c(=O)c34)cc2)CC1 [Example 88]"
  IC50: "< 10 nM"
- molecule: "O=c1[nH]ncc2nc(N3CCCCCC3)nc(Nc3ccc(CO)cc3)c12 [Example 331]"
  IC50: "> 100 nM"
- molecule: "CC(C)(CO)N1CCN(c2ccc(Nc3nc(N4CCC(CC#N)CC4)nc4cn[nH]c(=O)c34)cc2)CC1 [Example 266]"
  IC50: "< 50 nM"

Sample O=C(CC1CCN(c2ccc(Nc3nc(N4CCCCCC4)nc4cn[nH]c(=O)c34)cc2)CC1)N(CCO)CCO [Example 118] — what was its IC50?
< 10 nM

What about N#CCC1CCN(c2nc(Nc3ccc(CCCO)cc3)c3c(=O)[nH]ncc3n2)CC1 [Example 309] ?
< 50 nM

Next entry: CN1CCN(c2nc(Nc3ccc(CN4CCNCC4)cc3)c3c(=O)[nH]ncc3n2)CC1 [Example 45, hydrochloride]
> 100 nM

Also O=C(O)CCN1CCN(c2ccc(Nc3nc(N4CCCCCC4)nc4cn[nH]c(=O)c34)cc2)CC1 [Example 208] , if possible.
< 10 nM

Can you check O=C(c1ccc(Nc2nc(N3CCCCCC3)nc3cn[nH]c(=O)c23)cc1)N1CCNCC1 [Example 104, hydrochloride] next?
< 10 nM

Then what about the molecule N#CCC1CCN(c2nc(Nc3ccc(OCCN4CCNCC4)cc3)c3c(=O)[nH]ncc3n2)CC1 [Example 150] ?
> 100 nM

And what about the molecule NCC(=O)N1CCN(c2ccc(Nc3nc(-c4ccccc4)nc4cn[nH]c(=O)c34)cc2)CC1 [Example 11, hydrochloride] ?
< 100 nM

Now this one: O=c1[nH]ncc2nc(-c3ccc(CN4CCOCC4)cc3)nc(Nc3ccc(CN4CCNCC4)cc3)c12 [Example 55, hydrochloride]
> 100 nM

Also O=c1[nH]ncc2nc(N3CCCCCC3)nc(Nc3ccc(N4CCCC(CCO)C4)cc3)c12 (stereo not drawn) [Example 272] ?
< 10 nM

Thanks! And O=c1[nH]ncc2nc(N3CCCCCC3)nc(Nc3ccc(N4CCN(CCCO)CC4)cc3)c12 [Example 260] ?
< 50 nM
